protocol_description: Quantitative High-Throughput drug screen in 47 multiple myeloma cell lines against the NCATS MIPE library collection: Delta47_JCRB cell viability assay (AID 1918925; note: potency is the fitted concentration of half-maximal effect; nearly all actives have a fitted effect of over 45% in size)
applied_conditions: Delta47 myeloma viability, CellTiter-Glo ATP, 48 h; series mostly up to 45.8 µM
Description: PI: Beverly A. Mock Ph.D. Laboratory of Cancer Biology and Genetics, Center for Cancer Research, National Cancer Institute, National Institute of Health, Bethesda, Maryland […] 5; Detector; 425V; Luminescence; Viewlux PerkinElmer. […] 1. […] Briefly, the corresponding myeloma cell lines were screened in 1,536-well plates with 500 cells, 5-uL per well for inhibition of cell viability (assessed by measuring ATP levels with CellTiterGlo). […]
Records with an inconclusive call do not appear. The source made the active and inactive calls. Calls come from the whole dose curve; as a rule, active = well fitted cell-killing curve with a large enough effect; inconclusive = small, poorly fitted or top-dose-only effect, or effect the other way; inactive = no such curve, though single readings can be large or run the other way.
quantity_name: Potency

>>> value_measured("CC[C@@]1([C@@H]2O[C@@H]([C@H]3O[C@@](O)(CO)[C@H](C)C[C@H]3C)C[C@H]2C)CC[C@H]([C@]2(C)CC[C@]3(C[C@H](O)[C@@H](C)[C@@H]([C@@H](C)[C@@H](OC)[C@H](C)C(=O)O)O3)O2)O1")
"0.457 µM (active)"
>>> value_measured("CCOC(=O)N1CCN([N+]([O-])=NOc2ccc([N+](=O)[O-])cc2C#N)CC1")
"1.05 µM (active)"
>>> value_measured("O=C1NC(=O)[C@@H](c2cn3c4c(cccc24)CCC3)[C@H]1c1c[nH]c2ccccc12")
"0.235 µM (active)"
>>> value_measured("N#Cc1ccc(COC[C@H]2O[C@@H](n3c(NCc4ccc(Cl)c(Cl)c4)nc4c(N)ncnc43)[C@@H](O)[C@@H]2O)cc1")
"16.6 µM (active)"
>>> value_measured("FC(F)(F)c1ccc(Nc2nc3ccc(Oc4ccnc(-c5ncc(C(F)(F)F)[nH]5)c4)cc3[nH]2)cc1")
"23.5 µM (active)"
>>> value_measured("CC(=O)N1CCN(c2ccc(OCc3nn(C)c(C)c3-c3cccc4c(CCCOc5cccc6ccccc56)c(C(=O)O)n(Cc5cccnc5)c34)cc2)CC1")
"0.332 µM (active)"
>>> value_measured("CN1CCc2c(c3ccccc3n2Cc2ccc(C(=O)NO)cc2)C1")
"18.7 µM (active)"
